// provenance: PubChem BioAssay (NCI)

Test system: SF-268 CNS
Assay: NCI-60 one-dose screen, 48 h
Details: 10 µM unless noted
The panel holds about 83,000 compounds, 20% with a hit somewhere; the sample as a whole holds those more often. The source made the active and inactive calls. The calls were made as follows: active = growth percent below 10; inactive = the rest.
// classify into active, inactive

# lookup: test call for `O=C(NCc1cn(Cc2cccc(Oc3ccccc3)c2)nn1)c1cccnc1Nc1ccc(F)cc1` inactive

# lookup: test call for `COc1ccc(NC(=O)c2cc(OC)c(OC)c(OC)c2)cc1O` inactive

# lookup: test call for `O=C(NS(=O)(=O)c1ccccc1)n1cc(-c2ccncc2)c(-c2ccc(Cl)c(O)c2)n1` inactive

# lookup: test call for CN(C)c1ncnc2c1ccn2C1OC(CO)C(O)C1O (configuration not stated) inactive

# lookup: test call for CSc1nc2c(c(=O)[nH]1)C(c1ccc(C)cc1)C=C(C(=O)O)N2 (configuration not stated) inactive

# lookup: test call for `C=C[C@@H]1C[C@@H]2Cc3cc(Cl)ccc3N1O2` inactive

# lookup: test call for `CC(C)NCCCNC1=C(Cl)C(=O)c2ccccc2C1=O` inactive

# lookup: test call for `CCOC(=O)c1cn2c3c(cccc3c1=O)C(=O)/C(=C/c1cccc(Cl)c1Cl)C2` inactive

# lookup: test call for COc1ccc2c(c1)C(c1cc(OC)c3c(c1)OCO3)C1=C(COC1=O)N2 (configuration not stated) inactive

# lookup: test call for `O=C(CSc1nc2ccccc2[nH]1)c1ccc(N2CCOCC2)cc1` inactive

# lookup: test call for `COc1ccc(C(=O)N2NC(=O)/C(=C/c3cn(-c4ccccc4)nc3-c3ccccc3)N=C2c2ccccc2)cc1` inactive

# lookup: test call for `CCCCCCCC[C@@H](O)CC(=O)N[C@@H](CC(N)=O)C(=O)N[C@@H](CCC(N)=O)C(=O)N[C@@H](CC(=O)c1cc(C)cc(O)c1C(=O)c1c(O)cccc1O)CC(C)C` active

# lookup: test call for `COc1ccc(S(=O)(=O)n2ccc(-c3ccc4c(c3)CCC(C)(C)O4)n2)cc1OC` inactive

# lookup: test call for `COc1cc(/C=C/C(=O)/C=C/c2cc(OC)c3c(c2)OCO3)cc2c1OCO2` inactive

# lookup: test call for `CNC(=S)NNC(=O)C1CC1` inactive

# lookup: test call for `CC(C)CSc1nc(NN)c(C#N)c(-c2ccc(F)cc2)n1` inactive

# lookup: test call for `COc1ccc(NC(=O)CSc2nc(-c3ccc(OC)c(OC)c3)cc(-c3cc(OC)c(OC)c(OC)c3)n2)cc1` inactive

###

Test system: NCI-H322M lung
Assay: NCI-60 one-dose screen, 48 h
Conditions: 10 µM unless noted
The panel holds about 83,000 compounds, 20% with a hit somewhere; the sample as a whole holds those more often. Active and inactive are the calls of the source. How the source made its calls: active means growth percent below 10; inactive means the rest.
// classify into active, inactive

# lookup: test call for CCCCCCCCC(C)OC(=O)c1nn(C(C)=O)c2ccccc12 (stereo not given) inactive

# lookup: test call for `C[n+]1c(/C=C/c2c(O)ccc3ccccc23)ccc2ccccc21` inactive

# lookup: test call for `CC(=O)Oc1cccc(S(=O)(=O)n2cc(C(=O)C(=O)Nc3ccncc3)c3ccccc32)c1` inactive

# lookup: test call for `COc1ccc(-c2c(N)n[nH]c2-c2cc(OC)c3c(c2)OCCO3)cc1` inactive

# lookup: test call for `COc1cc([N+](=O)[O-])c2ncccc2c1O` active

# lookup: test call for `Cc1ccc(S(=O)(=O)C2=C3C(=C(c4ccccc4)c4ccccc43)CN(S(=O)(=O)c3ccc(C)cc3)C2)cc1` inactive

# lookup: test call for `FC(F)(F)c1cccc(-c2cn3c(ccc4ccccc43)n2)c1` inactive

# lookup: test call for `Cc1[nH]c2ccc(F)cc2c1CCNC(=O)C1CCN(C(=O)c2ccccc2)CC1` inactive

# lookup: test call for O=C(Oc1ccccc1[N+](=O)[O-])C1CCCN1C(=O)OCc1ccccc1 (stereo not given) inactive

# lookup: test call for `CCc1ccc(-c2ccc(=O)n(-c3ccc(S(N)(=O)=O)cc3)n2)cc1` inactive

# lookup: test call for `CCCN=C1NC(=O)/C(=C/c2nc(-c3ccc(OC)cc3)n3ccccc23)S1` inactive

# lookup: test call for `CN(CCCCN(C[C@H]1Cc2ncccc2CN1)[C@H]1CCCc2cccnc21)C1CCC(F)(F)CC1` inactive

# lookup: test call for COc1cc(C2CC(c3ccc4c(c3)OCO4)=NN2C=O)cc(OC)c1OC (stereo not given) inactive

# lookup: test call for C=C1CCC2C3(C)COC(c4c(OC)cccc4OC)OC3CCC2(C)C1C/C=C1/C(=O)OCC1O (stereo not given) inactive

# lookup: test call for `O=C(Nc1cccc(-n2cc(-c3ccncc3)c(-c3ccc(Cl)c(O)c3)n2)c1)Nc1ccc(Cl)c(Cl)c1` inactive

# lookup: test call for `O=C(CN1CCN(c2cc3c(cc2F)c(=O)c(C(=O)N/N=C/c2ccccc2O)cn3C2CC2)CC1)N/N=C\c1ccccc1O` inactive

# lookup: test call for `O=C(CSc1nc2ccccc2[nH]1)c1ccc(N2CCOCC2)cc1` inactive

# lookup: test call for `COc1cccc(/C=C2\Oc3cc(OCCCN4CCCC4)ccc3C2=O)c1` inactive

# lookup: test call for COc1cc(C2C3=C(COC3=O)Nc3cc4c(cc32)OCO4)cc2c1OCO2 (stereo not given) inactive

# lookup: test call for `Cc1ccc(-c2cc3nc(-c4ccccc4)nc(C(Cl)Cl)n3n2)cc1` active

# lookup: test call for `O=C(Nc1cccc(-n2cc(-c3ccncc3)c(-c3ccc(Cl)c(O)c3)n2)c1)c1ccccc1` inactive

# lookup: test call for CC(C)CC1NC(C)(C)CO1 (stereo not given) inactive

# lookup: test call for `Nc1nc(Nc2cc(Cl)cc(Cl)c2)nn1S(=O)(=O)c1ccc2ccccc2c1` inactive

# lookup: test call for COC(=O)C1CCCN1C(=O)[C@@H]1CCCN1C(=O)[C@H](Cc1c[nH]c2ccccc12)NC(=S)Nc1cc(C(F)(F)F)cc(C(F)(F)F)c1 (stereo not given in full) inactive

# lookup: test call for `NC(N)=Nc1nc2ccccc2o1` inactive

# lookup: test call for `CN1CCN(Cc2ccc(NC(=O)c3cncc(C#Cc4cnc(N)c5cnccc45)c3)cc2C(F)(F)F)CC1` inactive

# lookup: test call for `Cn1ncc2c(Sc3ccc(Cl)cc3)ncnc21` inactive

# lookup: test call for `COc1ccc(Nc2nn3c(-c4ccccc4)cc(-c4ccccc4)nc3c2C(N)=O)c(OC)c1` inactive

# lookup: test call for `NC(=O)CCCN1C/C(=C\c2ccccc2)C(=O)c2ccccc21` inactive

# lookup: test call for `O=C1NC(=C(Cl)Cl)/C(=N/S(=O)(=O)N2CCC(C3(C(F)(F)F)N=N3)CC2)N1` inactive

###

Test system: TK-10 renal
Assay: NCI-60 one-dose screen, 48 h (100 = growth as untreated, 0 = no growth, -100 = all killed)
Conditions: 10 µM unless noted
This is part of a sample that, as a whole, favours compounds with a hit. Of some 83,000 tested, about 20% had one in any assay.
Please respond with reported growth for every item in the list.
The response must be a number in % with no trailing unit.

Please look up its growth: `CCN1CCN(CC(=O)N2c3cccc4cccc(c34)N(C(=O)CN3CCN(CC)CC3)C2c2cn(-c3ccccc3)nc2-c2cccc([N+](=O)[O-])c2)CC1` -41.4

Please look up its growth: `O=C([O][Sn]([O]C(=O)c1ccccn1)([c]1ccccc1)[c]1ccccc1)c1ccccn1` 30.1

Please look up its growth: `COc1ccc(/C=C(\C#N)c2cc(OC)c3c(c2)OCO3)cc1` 49.6

Please look up its growth: `COc1cc(-c2nn(-c3cccc(NC(=O)c4ccc(N5CCOCC5)c(C(F)(F)F)c4)c3)cc2-c2ccncc2)ccc1Cl` 17.8

###

Test system: SN12C renal
Test: NCI-60 one-dose screen, 48 h (100 = growth as untreated, 0 = no growth, -100 = all killed)
Conditions: 10 µM unless noted
About 83,000 compounds went through this panel and 20% of them were active in at least one assay; those are over-represented in the sample as a whole.
Please respond with reported growth for every item in the list.
The response must be a number in % with no trailing unit.

Please look up its growth: `COc1ccc(C(=O)N2NC(=O)/C(=C/c3ccc(F)cc3)N=C2c2ccccc2)cc1` 84.7

Please look up its growth: `CCOC(=O)c1cn2c3c(cccc3c1=O)C(=O)/C(=C/c1cccc(Cl)c1Cl)C2` 94.2

Please look up its growth: `O=C(N/N=C/C=C\c1ccccc1)C(=O)N/N=C/C=C/c1ccccc1` 92.6

###

Test system: A498 renal
Test: NCI-60 one-dose screen, 48 h
Settings: 10 µM unless noted
Method: Growth inhibition of the A498 human tumor cell line is measured as a screen for anti-cancer activity. Cells are grown in 96 well plates and exposed to the test compound for 48 hours. Compounds are tested at a single concentration, which is 10^-5 M for most compounds. The reported endpoint is percent growth (GI% or GIPRCNT), where numbers from 0 - 100% represent growth inhibition, and numbers from -100% - 0 represent cell death. For example, a value of 40 represents 60% growth inhibition. […]
This is part of a sample that, as a whole, favours compounds with a hit. Of some 83,000 tested, about 20% had one in any assay. The source made the active and inactive calls. The calls were made as follows: active = growth percent below 10; inactive = the rest.
// classify into 1 = active, 0 = inactive

# lookup: test call for `CCOC(=O)c1c(/N=C2\SC(=O)/C(=C\C(=O)OC)N2NC)sc2c1CCN(C(=O)OCC)C2` 0

# lookup: test call for `FC(F)(F)c1cccc(-c2cn3c(ccc4ccccc43)n2)c1` 0

# lookup: test call for `CC(C)(C)n1cc(-c2ccnc(NCCCNS(=O)(=O)c3ccc(F)cc3)c2)c(-c2cccc(O)c2)n1` 0

# lookup: test call for `O=S(=O)(NCCCNc1nccc(-n2ccc3cccnc32)n1)c1ccc(Br)cc1` 0

# lookup: test call for `COc1ccc(S(=O)(=O)n2ccc(-c3ccc4c(c3)CCC(C)(C)O4)n2)cc1OC` 0

# lookup: test call for `O=C(NCc1cn(Cc2cccc(Oc3ccccc3)c2)nn1)c1cccnc1Nc1ccc(F)cc1` 0

# lookup: test call for Cc1csc(NC(c2ccc(Br)cc2)c2c(C)nc3ccccn23)n1 (stereo not given) 0

# lookup: test call for `C=C1CCC[C@]2(C)CCC[C@H](C)[C@@H](OC(C)=O)[C@@H]3OC(=O)C(=C)[C@@H]3C[C@H]1O2` 0

# lookup: test call for `CN1CCN(CCCOc2ccc3nc(Nc4ccc(Cl)c(C(F)(F)F)c4)ccc3c2)CC1` 0

# lookup: test call for `NC(=N\N=C/c1ccc(O)cc1)/C(N)=N\N=C/c1ccc(O)cc1` 0

# lookup: test call for `COc1ccc(-c2nc(/C=N/Nc3cc(C)nc4ccc(Br)cc34)c(C)o2)cc1` 0

# lookup: test call for COc1ccc(C2C=C(c3ccc(N)cc3)N=C3SC=CN32)cc1OC (stereo not given) 0

# lookup: test call for `OB(O)c1cccc(-c2nc3ccc4[nH]ncc4c3c3c2CCCC3)c1F` 0

# lookup: test call for `Nc1cc2c(cc1C(=O)c1cccc(F)c1)OCCO2` 0

# lookup: test call for `COc1ccc(NC(=O)c2cc(OC)c(OC)c(OC)c2)cc1O` 0

# lookup: test call for `C=C[C@@H]1C[C@@H]2Cc3cc(Cl)ccc3N1O2` 0

# lookup: test call for `CC(=O)Nc1ccc(/C=C/C(=O)c2ccccc2)cc1` 0

# lookup: test call for `O=S(=O)(NCCNc1nccc(-c2c(-c3ccc(O)cc3)nc3sccn23)n1)c1cccc2ccccc12` 0

# lookup: test call for `COc1ccc(C(=O)N2NC(=O)/C(=C/c3ccc(Br)cc3)N=C2c2ccccc2)cc1` 0

# lookup: test call for `O=C1c2c(c3c4ccccc4n(CCCCCCBr)c3c3[nH]c4ccccc4c23)C(=O)N1O` 1

# lookup: test call for NC1N=C(SCC(=O)N2CCN(c3cc4c(cc3F)c(=O)c(C(=O)O)cn4C3CC3)CC2)NC(=O)/C1=C/c1ccc(Cl)cc1 (stereo not given) 0

# lookup: test call for `Cc1ccc(-c2cc3nc(C(Cl)Cl)nc(-c4ccccc4C)n3n2)cc1` 0

# lookup: test call for `CC(C)(C)n1cc(-c2ccnc(NCCCNS(=O)(=O)c3cccc(F)c3)c2)c(-c2cccc(O)c2)n1` 0

# lookup: test call for `S=c1[nH]nc(-c2cc3ccc2CCc2ccc(cc2)CC3)n1C1CC1` 0

# lookup: test call for `CCCCCCN1CSC(=S)N(CCCCCC)C1` 0

# lookup: test call for `CCn1c2ccccc2c2cc(NC(=O)Nc3ccc([N+](=O)[O-])cc3C)ccc21` 0

# lookup: test call for `Cc1ccc2ccccc2c1C[n+]1ccccc1` 0

# lookup: test call for `COc1ccc(-c2nc(/C=N/Nc3cc(C)nc4ccc(Cl)cc34)c(C)o2)cc1` 0

# lookup: test call for `CCCN=C1NC(=O)/C(=C/c2nc(-c3ccc(OC)cc3)n3ccccc23)S1` 0

# lookup: test call for `O=C(c1c[nH]c(=O)c(-c2ccccc2)c1)c1ccccc1O` 0

# lookup: test call for `O=c1cc(Cc2ccc([N+](=O)[O-])cc2)[nH]c(=O)[nH]1` 0

# lookup: test call for `Cc1ccc(CSC(=N)N)cc1C` 0

# lookup: test call for `CC(=O)Nc1nc(N)nc(NC(C)=O)c1N=O` 0

# lookup: test call for `COc1cc(/C=C/c2cc(/C=C/c3ccc(O)c(OC)c3)n(C(N)=O)n2)ccc1O` 1

# lookup: test call for `COc1ccc(-c2c(N)n[nH]c2-c2cc3c(c(OC)c2OC)OCO3)cc1` 0
